Data origin, for the record: patent US9708628B2

procedure_details: Particle size and surface potential of siRNA MENDs prepared by t-BuOH injecting method
Type: physicochemical
assay_setup: siRNA MEND, cationic lipid/cholesterol=70/30, DMG-PEG2000 3%
property_label: PDI
Just the number, please, no unit attached.

CCN(CCCCOC(=O)CCC(=O)Oc1c(C)c(C)c2c(c1C)CCC(C)(CCCC(C)CCCC(C)CCCC(C)C)O2)CCSSCCN(CC)CCCCOC(=O)CCC(=O)Oc1c(C)c(C)c2c(c1C)CCC(C)(CCCC(C)CCCC(C)CCCC(C)C)O2 (stereo not drawn) [TS-C4E]	0.07
Cc1c(C)c2c(c(C)c1OC(=O)CCC(=O)NCCCN(C)CCSSCCN(C)CCCNC(=O)CCC(=O)Oc1c(C)c(C)c3c(c1C)CCC(C)(CCCC(C)CCCC(C)CCCC(C)C)O3)CCC(C)(CCCC(C)CCCC(C)CCCC(C)C)O2 (stereo not drawn) [TSamide-C3M]	0.21
Cc1c(C)c2c(c(C)c1OC(=O)CCC(=O)OCC1CCN(CCSSCCN3CCC(COC(=O)CCC(=O)Oc4c(C)c(C)c5c(c4C)CCC(C)(CCCC(C)CCCC(C)CCCC(C)C)O5)CC3)CC1)CCC(C)(CCCC(C)CCCC(C)CCCC(C)C)O2 (stereo not drawn) [TS-P4C1]	0.13
Cc1c(C)c2c(c(C)c1OC(=O)CCC(=O)OCC1CCCCN1CCSSCCN1CCCCC1COC(=O)CCC(=O)Oc1c(C)c(C)c3c(c1C)CCC(C)(CCCC(C)CCCC(C)CCCC(C)C)O3)CCC(C)(CCCC(C)CCCC(C)CCCC(C)C)O2 (stereo not drawn) [TS-P2C1]	0.12
Cc1c(C)c2c(c(C)c1OC(=O)CCC(=O)OCCCN(C)CCSSCCN(C)CCCOC(=O)CCC(=O)Oc1c(C)c(C)c3c(c1C)CCC(C)(CCCC(C)CCCC(C)CCCC(C)C)O3)CCC(C)(CCCC(C)CCCC(C)CCCC(C)C)O2 (stereo not drawn) [Example B-2-5]	0.076

Could you please provide reported PDI for Cc1c(C)c2c(c(C)c1OC(=O)CCC(=O)OCCCCCN(CCSSCCN(CCCCCOC(=O)CCC(=O)Oc1c(C)c(C)c3c(c1C)CCC(C)(CCCC(C)CCCC(C)CCCC(C)C)O3)C(C)C)C(C)C)CCC(C)(CCCC(C)CCCC(C)CCCC(C)C)O2 (stereo not drawn) [TS-C5P] ? Thanks!
0.13

Could you please provide reported PDI for Cc1c(C)c2c(c(C)c1OC(=O)CCC(=O)OCC1CCCN(CCSSCCN3CCCC(COC(=O)CCC(=O)Oc4c(C)c(C)c5c(c4C)CCC(C)(CCCC(C)CCCC(C)CCCC(C)C)O5)C3)C1)CCC(C)(CCCC(C)CCCC(C)CCCC(C)C)O2 (stereo not drawn) [TS-P3C1] ? Thanks!
0.13

Could you please provide reported PDI for Cc1c(C)c2c(c(C)c1OC(=O)CCC(=O)OCCCC1CCN(CCSSCCN3CCC(CCCOC(=O)CCC(=O)Oc4c(C)c(C)c5c(c4C)CCC(C)(CCCC(C)CCCC(C)CCCC(C)C)O5)CC3)CC1)CCC(C)(CCCC(C)CCCC(C)CCCC(C)C)O2 (stereo not drawn) [TS-P4C3] ? Thanks!
0.09

Could you please provide reported PDI for Cc1c(C)c2c(c(C)c1OC(=O)CCCC(=O)OCCCN(C)CCSSCCN(C)CCCOC(=O)CCCC(=O)Oc1c(C)c(C)c3c(c1C)CCC(C)(CCCC(C)CCCC(C)CCCC(C)C)O3)CCC(C)(CCCC(C)CCCC(C)CCCC(C)C)O2 (stereo not drawn) [TG-C3M] ? Thanks!
0.13

====

size (nm) values by entry
procedure_details: Particle size and surface potential of pDNA-encapsulating MENDs, dynamic light scattering (Zetasizer Nano)
Format: physicochemical
assay_setup: pDNA MEND, cationic lipid:SOPE:Chol = 3:4:3
Response body: numeric value in nm, unit text excluded.

# count of solved cases: 3
CCCCCCCCCCCCCC(=O)OCCCN(C)CCSSCCN(C)CCCOC(=O)CCCCCCCCCCCCC	156.3
CCCCCCCC/C=C\CCCCCCCC(=O)OCC(CN(C)C)OC(=O)CCCCCCC/C=C\CCCCCCCC (centres unmarked) [DODAP, reference compound]	151.1
CCCCCCCCCCCCCCCCCC(=O)OCCCN(C)CCSSCCN(C)CCCOC(=O)CCCCCCCCCCCCCCCCC	134.6

Could you please provide reported size (nm) for "CCCCC/C=C\C/C=C\CCCCCCCC(=O)OCCCN(C)CCSSCCN(C)CCCOC(=O)CCCCCCC/C=C\C/C=C\CCCCC" ? Thanks!
148.7

Could you please provide reported size (nm) for CCCCCCCCCCCCCC(=O)OCCCN(C)CCCCCCN(C)CCCOC(=O)CCCCCCCCCCCCC [Example B-2-1, reference compound] ? Thanks!
150.3

====

procedure_details: Particle size and surface potential of siRNA MENDs prepared by t-BuOH injecting method
Format: physicochemical
assay_setup: siRNA MEND, cationic lipid/cholesterol=70/30, DMG-PEG2000 3%
size (nm) values by entry
Response body: numeric value in nm, unit text excluded.

Cc1c(C)c2c(c(C)c1OC(=O)CCC(=O)OCCC1CCN(CCSSCCN3CCC(CCOC(=O)CCC(=O)Oc4c(C)c(C)c5c(c4C)CCC(C)(CCCC(C)CCCC(C)CCCC(C)C)O5)CC3)CC1)CCC(C)(CCCC(C)CCCC(C)CCCC(C)C)O2 (centres unmarked)	125
Cc1c(C)c2c(c(C)c1OC(=O)CCCC(=O)OCCCN(C)CCSSCCN(C)CCCOC(=O)CCCC(=O)Oc1c(C)c(C)c3c(c1C)CCC(C)(CCCC(C)CCCC(C)CCCC(C)C)O3)CCC(C)(CCCC(C)CCCC(C)CCCC(C)C)O2 (centres unmarked)	120
Cc1c(C)c2c(c(C)c1OC(=O)CCC(=O)NCCCN(C)CCSSCCN(C)CCCNC(=O)CCC(=O)Oc1c(C)c(C)c3c(c1C)CCC(C)(CCCC(C)CCCC(C)CCCC(C)C)O3)CCC(C)(CCCC(C)CCCC(C)CCCC(C)C)O2 (centres unmarked) [TSamide-C3M]	93
Cc1c(C)c2c(c(C)c1OC(=O)CCC(=O)OCCCCC1CCN(CCSSCCN3CCC(CCCCOC(=O)CCC(=O)Oc4c(C)c(C)c5c(c4C)CCC(C)(CCCC(C)CCCC(C)CCCC(C)C)O5)CC3)CC1)CCC(C)(CCCC(C)CCCC(C)CCCC(C)C)O2 (centres unmarked)	123
Cc1c(C)c2c(c(C)c1OC(=O)CCC(=O)OCCCCCN(CCSSCCN(CCCCCOC(=O)CCC(=O)Oc1c(C)c(C)c3c(c1C)CCC(C)(CCCC(C)CCCC(C)CCCC(C)C)O3)C(C)C)C(C)C)CCC(C)(CCCC(C)CCCC(C)CCCC(C)C)O2 (centres unmarked)	125

Could you please provide reported size (nm) for Cc1c(C)c2c(c(C)c1OC(=O)CCC(=O)OCC1CCN(CCSSCCN3CCC(COC(=O)CCC(=O)Oc4c(C)c(C)c5c(c4C)CCC(C)(CCCC(C)CCCC(C)CCCC(C)C)O5)CC3)CC1)CCC(C)(CCCC(C)CCCC(C)CCCC(C)C)O2 (centres unmarked) ? Thanks!
113

Could you please provide reported size (nm) for Cc1c(C)c2c(c(C)c1OC(=O)CCC(=O)OCC1CCCCN1CCSSCCN1CCCCC1COC(=O)CCC(=O)Oc1c(C)c(C)c3c(c1C)CCC(C)(CCCC(C)CCCC(C)CCCC(C)C)O3)CCC(C)(CCCC(C)CCCC(C)CCCC(C)C)O2 (centres unmarked) ? Thanks!
114

Could you please provide reported size (nm) for Cc1c(C)c2c(c(C)c1OC(=O)CCC(=O)OCCCN(C)CCSSCCN(C)CCCOC(=O)CCC(=O)Oc1c(C)c(C)c3c(c1C)CCC(C)(CCCC(C)CCCC(C)CCCC(C)C)O3)CCC(C)(CCCC(C)CCCC(C)CCCC(C)C)O2 (centres unmarked) ? Thanks!
110

====

PDI values by entry
procedure_details: Particle size and surface potential of pDNA-encapsulating MENDs, dynamic light scattering (Zetasizer Nano)
Type: physicochemical
assay_setup: pDNA MEND, cationic lipid:SOPE:Chol = 3:4:3
Just the number, please, no unit attached.

# count of solved cases: 4
CCCCCCCCCCCCCC(=O)OCCCN(C)CCSSCCN(C)CCCOC(=O)CCCCCCCCCCCCC	0.14
CCCCCCCCCCCCCCCCCC(=O)OCCCN(C)CCSSCCN(C)CCCOC(=O)CCCCCCCCCCCCCCCCC	0.132
CCCCCCCC/C=C\CCCCCCCC(=O)OCC(CN(C)C)OC(=O)CCCCCCC/C=C\CCCCCCCC (centres unmarked) [DODAP, reference compound]	0.093
CCCCCCCCCCCCCC(=O)OCCCN(C)CCCCCCN(C)CCCOC(=O)CCCCCCCCCCCCC [Example B-2-1, reference compound]	0.07

Could you please provide reported PDI for "CCCCC/C=C\C/C=C\CCCCCCCC(=O)OCCCN(C)CCSSCCN(C)CCCOC(=O)CCCCCCC/C=C\C/C=C\CCCCC" ? Thanks!
0.091
